experiment: Formation of inclusion complexes with MCD (UV spectroscopy, Hill linearization); assay type: physicochemical; details: MCD; C(MCD) = 0.01 M; pH 6.2, 22 °C
readout.label: LC, % (%)
Answers are plain numbers, in %.

Worked examples follow.
{"compound": "C=CCc1ccc2c(c1)OCO2 [Safrole]", "LC, % / %": 8}
{"compound": "C=CCc1cc2c(c(OC)c1OC)OCO2 [Dillapiol]", "LC, % / %": 13}
{"compound": "C=CC(C)(O)CCC=C(C)C (centres unmarked) [Linalool]", "LC, % / %": 10}
{"compound": "C=CCc1cc(OC)c(OC)c(OC)c1OC [Allyltetramethoxybenzene]", "LC, % / %": 11}

Dear colleague, could you send me LC, % for each of the items below? Thanks.
1. C=CCc1cc(OC)c2c(c1OC)OCO2 [Apiol]
2. C=CCc1ccc(O)c(OC)c1 [Eugenol, 4-allyl-2-methoxyphenol]
3. C=CCc1cc(OC)c2c(c1)OCO2 [Myristicin]
4. CC1CCC(C(C)C)C(O)C1 (centres unmarked) [Menthol]

11
10
22
11
